Numbers sourced from patent US8394792B2.

test: Test for solubility according to pH; format: physicochemical; conditions: 37 °C, pH 6.8, aqueous buffer, thermodynamic from solid, second solution pH about 6.8, 2 mg/mL, 37° C. 2 hours; read-out: Solubility (μg/mL) pH 6.8
PARAMETER MEASURED: solubility at 2 h (µg/mL)
Please state the figure in µg/mL; there is no need to write the unit.

O=C(c1ccc(O)c(Cl)c1)N1CCOc2ccncc21 [Compound 37] : 114
O=C(c1ccc(O)nc1)N1CCOc2ccncc21 [Compound 32] : 1470
O=C(c1cc(Cl)c(O)c(Cl)c1)N1CCOc2ccncc21 [Compound 39] : 480
COC(=O)COc1c(Br)cc(C(=O)N2CCOc3ccncc32)cc1Br [Compound 24] : 134

Using known records, supply solubility at 2 h for Cc1cnc2c(c1)N(C(=O)c1cc(Br)c(O)c(Br)c1)CCO2 [Compound 27-2] 579

###

assay: Test for solubility according to pH; type: physicochemical; details: pH 1.2, simulated gastric fluid, thermodynamic from solid; first solution pH about 1.2, 2 mg/mL, 37° C. 2 hours; read-out: Solubility (μg/mL) pH 1.2
PARAMETER MEASURED: solubility at 2 h (µg/mL)
Please state the figure in µg/mL; there is no need to write the unit.

The cases that follow already have their solubility at 2 h on record.
Cl.O=C(c1cc(Br)c(O)c(Br)c1)N1CCOc2ccncc21 [Compound 33] : 1580
O=C(c1cc(Br)c([O-])c(Br)c1)N1CCOc2ccncc21.[K+] [Compound 73] : 1150
Br.O=C(c1cc(Cl)c(O)c(Cl)c1)N1CCOc2ccncc21 [Compound 13] : 1400

Using known records, supply solubility at 2 h for Br.O=C(c1cc(Br)c(O)c(Br)c1)N1CCOc2ccncc21 [Compound 3] 1420

###

target: CYP2C9 (Homo sapiens); test: biochemical
Sequence (P11712 whole entry): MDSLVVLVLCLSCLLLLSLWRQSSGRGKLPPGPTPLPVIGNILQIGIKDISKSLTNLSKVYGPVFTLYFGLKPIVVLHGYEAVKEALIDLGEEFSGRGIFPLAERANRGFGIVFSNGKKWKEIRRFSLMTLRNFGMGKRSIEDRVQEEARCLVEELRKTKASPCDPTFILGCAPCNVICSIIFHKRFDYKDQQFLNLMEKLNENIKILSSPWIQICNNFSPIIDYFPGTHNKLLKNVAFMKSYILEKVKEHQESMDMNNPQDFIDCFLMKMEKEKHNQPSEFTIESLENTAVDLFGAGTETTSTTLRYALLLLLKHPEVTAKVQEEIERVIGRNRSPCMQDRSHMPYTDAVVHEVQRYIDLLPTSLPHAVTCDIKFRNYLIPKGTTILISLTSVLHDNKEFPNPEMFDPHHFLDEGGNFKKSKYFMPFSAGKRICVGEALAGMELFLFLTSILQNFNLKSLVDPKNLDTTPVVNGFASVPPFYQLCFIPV
PARAMETER MEASURED: pIC50
# pIC50: negative log10 of molar concentration; output just the value

Using known records, supply pIC50 for `O=C(c1cc(Br)c(O)c(Br)c1)N1CCOc2ncc(-c3ccc(C(F)(F)F)cc3)cc21` 5.93

Using known records, supply pIC50 for `O=C(Cc1cc(Br)c(O)c(Br)c1)N1CCOc2ccncc21` 4.74

###

target: hURAT1 (Homo sapiens, UniProt Q96S37); construct: expressed in transfected cells; host or cells: HEK293 (human kidney cell line), transient transfection with Fugene6; assay: Test for inhibiting urate reuptake activity via hURAT1 (uric acid transport assay in hURAT1-overexpressed HEK293 cell line); format: cell-based; conditions: hURAT1-overexpressed HEK293 cells, [14C]-uric acid uptake, 100 μM uric acid; read-out: IC50 (μM) hURAT, level of uric acid reuptake inhibition
Sequence (Q96S37 whole entry): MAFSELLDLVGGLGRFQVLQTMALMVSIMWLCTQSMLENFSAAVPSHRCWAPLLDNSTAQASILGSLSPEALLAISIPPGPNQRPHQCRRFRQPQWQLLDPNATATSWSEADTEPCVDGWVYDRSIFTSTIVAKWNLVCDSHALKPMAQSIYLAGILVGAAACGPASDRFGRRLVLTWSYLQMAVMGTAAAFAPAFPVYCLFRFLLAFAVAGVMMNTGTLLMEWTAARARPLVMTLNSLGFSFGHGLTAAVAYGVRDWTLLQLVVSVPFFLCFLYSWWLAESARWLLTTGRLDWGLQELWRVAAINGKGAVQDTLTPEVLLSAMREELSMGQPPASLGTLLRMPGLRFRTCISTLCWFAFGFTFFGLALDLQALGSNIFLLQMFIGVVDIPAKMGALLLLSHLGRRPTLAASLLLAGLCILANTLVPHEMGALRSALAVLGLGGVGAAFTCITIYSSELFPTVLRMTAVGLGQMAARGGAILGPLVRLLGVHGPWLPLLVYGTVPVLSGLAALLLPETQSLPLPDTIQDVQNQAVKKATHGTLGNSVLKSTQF
PARAMETER MEASURED: IC50 (µM)
Please state the figure in µM; there is no need to write the unit.

The cases that follow already have their IC50 on record.
N#Cc1cnc2c(c1)N(C(=O)c1cc(Br)c(O)c(Br)c1)CCO2 : 0.0179
COc1cncc(-c2cnc3c(c2)N(C(=O)c2cc(Br)c(O)c(Br)c2)CCO3)c1 : 0.0232

Switching to the query record.
Using known records, supply IC50 for `O=C(c1cc(Br)c(O)c(Br)c1)N1CCOc2ccncc21` 0.023

###

target: CYP2C9 (Homo sapiens); assay: biochemical
PARAMETER MEASURED: IC50

The cases that follow already have their IC50 on record.
COc1c(Br)cc(C(=O)N2CCOc3nc(C)ccc32)cc1Br [Compound 58] : > 20 µM
O=C(c1cc(F)c(O)c(F)c1)N1CCOc2ccncc21 [Compound 29] : > 20 µM
O=C(c1ccc(O)c(Cl)c1)N1CCOc2ccncc21 [Compound 37] : > 20 µM
O=C(c1ccc(O)nc1)N1CCOc2ccncc21 [Compound 32] : > 20 µM
O=C(c1cnc(O)nc1O)N1CCOc2ccncc21 [Compound 59] : > 20 µM

Using known records, supply IC50 for COc1c(Br)cc(C(=O)N2CCOc3ncc(C#N)cc32)cc1Br [Compound 47-1] > 20 µM
